Just for reference, patent US8129371B2 is where these values come from.

molecular target: PI3K (Homo sapiens, UniProt P42336); construct: PI3 Kinase α IC50; other: PI3 Kinase α; other: PI3 Kinase α isoform, fluorescence polarization; test: Fluorescence polarization assay for PI3K; type: biochemical; details: PI3 Kinase α; read-out: PI3 Kinase α IC50
Sequence (P42336 whole entry, canonical isoform): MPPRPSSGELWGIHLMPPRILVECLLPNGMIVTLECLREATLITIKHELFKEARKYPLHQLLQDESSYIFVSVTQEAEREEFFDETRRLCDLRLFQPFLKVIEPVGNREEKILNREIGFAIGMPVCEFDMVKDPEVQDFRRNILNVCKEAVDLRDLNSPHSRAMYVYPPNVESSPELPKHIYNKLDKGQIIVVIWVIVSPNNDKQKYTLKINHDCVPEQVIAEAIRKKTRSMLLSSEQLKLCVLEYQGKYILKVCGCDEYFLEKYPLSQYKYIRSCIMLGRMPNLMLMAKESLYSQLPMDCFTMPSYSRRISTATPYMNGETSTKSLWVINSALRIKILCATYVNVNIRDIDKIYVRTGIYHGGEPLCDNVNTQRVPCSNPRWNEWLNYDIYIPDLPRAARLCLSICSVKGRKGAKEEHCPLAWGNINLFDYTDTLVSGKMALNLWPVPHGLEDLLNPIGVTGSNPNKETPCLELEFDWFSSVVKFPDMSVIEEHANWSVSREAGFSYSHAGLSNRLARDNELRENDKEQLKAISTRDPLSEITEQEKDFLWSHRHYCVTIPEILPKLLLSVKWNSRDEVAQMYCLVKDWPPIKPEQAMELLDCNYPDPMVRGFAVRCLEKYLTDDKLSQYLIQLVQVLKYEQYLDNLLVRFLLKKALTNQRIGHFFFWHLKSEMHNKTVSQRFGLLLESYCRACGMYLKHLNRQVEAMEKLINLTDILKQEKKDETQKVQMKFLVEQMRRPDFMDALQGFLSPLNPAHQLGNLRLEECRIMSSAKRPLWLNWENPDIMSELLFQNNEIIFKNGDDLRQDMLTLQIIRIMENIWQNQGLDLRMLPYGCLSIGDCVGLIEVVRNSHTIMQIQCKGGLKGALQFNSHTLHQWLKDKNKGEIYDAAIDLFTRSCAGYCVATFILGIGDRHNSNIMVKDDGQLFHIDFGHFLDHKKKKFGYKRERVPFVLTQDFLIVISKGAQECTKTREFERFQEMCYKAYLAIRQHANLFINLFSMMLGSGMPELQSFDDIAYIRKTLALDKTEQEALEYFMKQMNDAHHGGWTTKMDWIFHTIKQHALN
Task for the reader: assign each of the following compounds its reported log10(IC50).
Reminder: these figures are log10 of reported IC50, in nM before transformation.

[
  {
    "input-smiles": "CCNC(=O)Nc1ccc(-c2nc(N3CC4CCC(C3)O4)c3cnn(CC(F)(F)F)c3n2)cc1",
    "value-type": "log10(IC50)",
    "measurement": 3.57
  },
  {
    "input-smiles": "CCNC(=O)Nc1ccc(-c2nc(N3CC4CCC(C3)O4)c3cnn(C4CCNCC4)c3n2)cc1",
    "value-type": "log10(IC50)",
    "measurement": 3.33
  },
  {
    "input-smiles": "Cn1ncc2c(N3CC4CCC(C3)O4)nc(-c3ccc(NC(=O)Nc4ccc(CO)cc4)cc3)nc21",
    "value-type": "log10(IC50)",
    "measurement": 1.67
  }
]

Need log10(IC50) for each of these compounds.
1. CC(C)OC(=O)N1CCC(n2ncc3c(N4CC5CCC(C4)O5)nc(-c4ccc(NC(=O)NCCO)cc4)nc32)CC1
2. CN1CCN(c2ccc(NC(=O)Nc3ccc(-c4nc(N5CC6CCC(C5)O6)c5cnn(CCC#N)c5n4)cc3)cn2)CC1
3. CCn1ncc2c(N3CC4CCC(C3)O4)nc(-c3ccc(NC(=O)Nc4ccc(N5CCCC5)cc4)cc3)nc21
4. CC(C)(C)OC(=O)N1CCC(n2ncc3c(N4CC5CCC(C4)O5)nc(-c4ccc(NC(=O)NC5CC5)cc4)nc32)CC1

1: 3.18; 2: 2.16; 3: 3.16; 4: 3.59

----------
biological target: PI3K (Homo sapiens); construct: PI3 Kinase α IC50; other: PI3 Kinase α; other: PI3 Kinase α isoform, fluorescence polarization; assay: Fluorescence polarization assay for PI3K; format: biochemical; details: PI3 Kinase α; read-out: PI3 Kinase α IC50
# True = IC50 below 2 µM (exclusive); False = IC50 at/above 2 µM

Take a look at these entries with their results.
[
  {
    "compound": "COC(=O)Nc1ccc(-c2nc(N3CC4CCC(C3)O4)c3cnn(C4CCC(O)CC4)c3n2)cc1 (stereo not shown) [Example 137]",
    "measurement-target": "PI3K (Homo sapiens)",
    "qualitative-label": "False"
  },
  {
    "compound": "CCn1ncc2c(N3CC4CCC(C3)O4)nc(-c3ccc(NC(=O)NCC(=O)N4CCN(C)CC4)cc3)nc21 [Example 276]",
    "measurement-target": "PI3K (Homo sapiens)",
    "qualitative-label": "False"
  },
  {
    "compound": "CCn1ncc2c(N3CC4CCC(C3)O4)nc(-c3ccc(NC(=O)NCCN4CCN(C)CC4)cc3)nc21 [Example 178]",
    "measurement-target": "PI3K (Homo sapiens)",
    "qualitative-label": "True"
  },
  {
    "compound": "COC(=O)Nc1ccc(-c2nc(N3CC4CCC(C3)O4)c3cnn(CCN(C)C)c3n2)cc1 [Example 154]",
    "measurement-target": "PI3K (Homo sapiens)",
    "qualitative-label": "False"
  },
  {
    "compound": "COC(=O)N1CCC(n2ncc3c(N4CC5CCC(C4)O5)nc(-c4ccc(NC(=O)Nc5cccc(CO)c5)cc4)nc32)CC1 [Example 171]",
    "measurement-target": "PI3K (Homo sapiens)",
    "qualitative-label": "True"
  }
]

IC50 under 2 µM? Item: CNC(=O)Nc1ccc(-c2nc(N3CC4CCC(C3)O4)c3cnn([C@H]4CC[C@@H](O)CC4)c3n2)cc1 [Example 109]
True

IC50 under 2 µM? Item: CCNC(=O)Nc1ccc(-c2nc(N3CC4CCC(C3)O4)c3cnn(C4CCN(C(=O)OCC)CC4)c3n2)cc1 [Example 31]
True

----------
target: PI3K (Homo sapiens, UniProt P48736); construct: PI3 Kinase γ IC50; other: PI3 Kinase γ; other: PI3 Kinase γ isoform, fluorescence polarization; experiment: Fluorescence polarization assay for PI3K; type: biochemical; settings: PI3 Kinase γ; read-out: PI3 Kinase γ IC50
Sequence (P48736 whole entry, canonical isoform): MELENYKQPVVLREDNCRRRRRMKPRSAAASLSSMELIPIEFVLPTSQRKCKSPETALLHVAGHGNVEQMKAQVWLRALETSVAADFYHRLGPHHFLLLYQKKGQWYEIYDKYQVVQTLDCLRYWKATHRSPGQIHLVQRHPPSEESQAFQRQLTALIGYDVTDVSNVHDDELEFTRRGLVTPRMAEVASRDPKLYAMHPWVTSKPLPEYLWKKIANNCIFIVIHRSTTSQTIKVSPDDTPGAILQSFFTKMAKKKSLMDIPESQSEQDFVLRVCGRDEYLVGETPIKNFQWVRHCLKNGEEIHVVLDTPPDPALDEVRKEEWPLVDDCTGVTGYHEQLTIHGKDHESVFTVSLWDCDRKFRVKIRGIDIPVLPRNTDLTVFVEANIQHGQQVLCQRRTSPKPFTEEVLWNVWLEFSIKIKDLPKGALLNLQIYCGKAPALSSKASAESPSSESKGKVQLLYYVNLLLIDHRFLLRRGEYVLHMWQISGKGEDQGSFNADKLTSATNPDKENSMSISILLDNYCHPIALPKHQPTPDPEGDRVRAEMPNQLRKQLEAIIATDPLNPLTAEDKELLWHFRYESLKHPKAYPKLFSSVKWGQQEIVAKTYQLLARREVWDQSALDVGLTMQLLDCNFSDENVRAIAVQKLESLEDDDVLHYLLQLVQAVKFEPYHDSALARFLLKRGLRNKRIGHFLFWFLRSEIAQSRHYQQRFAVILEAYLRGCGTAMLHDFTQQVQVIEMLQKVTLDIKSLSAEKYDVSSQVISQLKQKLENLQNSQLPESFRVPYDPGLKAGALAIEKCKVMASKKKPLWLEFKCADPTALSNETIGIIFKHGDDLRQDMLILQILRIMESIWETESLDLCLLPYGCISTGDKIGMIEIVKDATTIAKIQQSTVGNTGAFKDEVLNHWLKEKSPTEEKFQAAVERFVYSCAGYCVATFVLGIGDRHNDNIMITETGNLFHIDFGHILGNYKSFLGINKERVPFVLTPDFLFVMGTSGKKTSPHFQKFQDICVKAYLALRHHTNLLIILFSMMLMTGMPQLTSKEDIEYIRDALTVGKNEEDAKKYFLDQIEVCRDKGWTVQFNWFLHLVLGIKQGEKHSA
value-type: IC50 (µM)
Answers are plain numbers, in µM.

[
  {
    "compound": "CCn1ncc2c(N3CC4CCC(C3)O4)nc(-c3ccc(NC(=O)NCCC(=O)NCCN(C)C)cc3)nc21 [Example 279]",
    "measurement-target": "PI3K (Homo sapiens, UniProt P48736)",
    "measurement": 8.11
  },
  {
    "compound": "CCn1ncc2c(N3CC4CCC(C3)O4)nc(-c3ccc(NC(=O)Nc4ccccc4)cc3)nc21 [Example 46]",
    "measurement-target": "PI3K (Homo sapiens, UniProt P48736)",
    "measurement": 1.61
  },
  {
    "compound": "CN(C)CCOc1ccc(NC(=O)Nc2ccc(-c3nc(N4C5CCC4COC5)c4cnn(CC(F)(F)F)c4n3)cc2)cc1 [Example 275]",
    "measurement-target": "PI3K (Homo sapiens, UniProt P48736)",
    "measurement": 3.11
  },
  {
    "compound": "CCn1ncc2c(N3CC4CCC(C3)O4)nc(-c3ccc(NC(=O)NCC(=O)N4CCN(C)CC4)cc3)nc21 [Example 276]",
    "measurement-target": "PI3K (Homo sapiens, UniProt P48736)",
    "measurement": 9
  },
  {
    "compound": "CCn1ncc2c(N3CC4CCC(C3)O4)nc(-c3ccc(NC(=O)Nc4ccc(OCCN(C)C)cc4)cc3)nc21 [Example 186]",
    "measurement-target": "PI3K (Homo sapiens, UniProt P48736)",
    "measurement": 1.78
  }
]

Need IC50 for each of these compounds.
1. CC(C)C(=O)N1CCC(n2ncc3c(N4CC5CCC(C4)O5)nc(-c4ccc(NC(=O)Nc5cccnc5)cc4)nc32)CC1 [Example 88]
2. COC(=O)N1CCC(n2ncc3c(N4CC5CCC(C4)O5)nc(-c4ccc(NC(=O)Nc5ccc(CO)cc5)cc4)nc32)CC1 [Example 164]
3. O=C(Nc1ccccc1)Nc1ccc(-c2nc(N3CC4CCC(C3)O4)c3cnn(CCO)c3n2)cc1 [Example 198]
4. CCn1ncc2c(N3CC4CCC(C3)O4)nc(-c3ccc(NC(=O)Nc4ccc(C)cc4)cc3)nc21 [Example 189]

1. 3.82
2. 1.82
3. 1.93
4. 11

Which measured IC50 belongs to COC(=O)N1CCC(n2ncc3c(N4CC5CCC(C4)O5)nc(-c4ccc(NC(=O)Nc5ccc(N6CCN(C)CC6)nc5)cc4)nc32)CC1 [Example 167] , tested on PI3K (Homo sapiens, UniProt P48736)?
1.22

----------
molecular target: PI3K (Homo sapiens); construct: PI3 Kinase α IC50; other: PI3 Kinase α; other: PI3 Kinase α isoform, fluorescence polarization; assay: Fluorescence polarization assay for PI3K; format: biochemical; settings: PI3 Kinase α; read-out: PI3 Kinase α IC50
value-type: IC50 (nM)
Numbers only, in nM.

Use these answered entries as a reference point.
[
  {
    "compound": "CCn1ncc2c(N3CC4CCC(C3)O4)nc(-c3ccc(NC(=O)OCC(C)O)cc3)nc21 (stereo not drawn)",
    "value-type": "IC50",
    "measurement": 6640
  },
  {
    "compound": "CNC(=O)Nc1ccc(-c2nc(N3CC4CCC(C3)O4)c3cnn(CCN(C)C)c3n2)cc1",
    "value-type": "IC50",
    "measurement": 966
  },
  {
    "compound": "CC(C)OC(=O)N1CCC(n2ncc3c(N4CC5CCC(C4)O5)nc(-c4ccc(NC(=O)NCCF)cc4)nc32)CC1",
    "value-type": "IC50",
    "measurement": 3150
  },
  {
    "compound": "O=C(Nc1ccc(-c2nc(N3CC4CCC(C3)O4)c3cnn(CC(F)(F)F)c3n2)cc1)Nc1ccc(N2CCOCC2)nc1",
    "value-type": "IC50",
    "measurement": 9500
  },
  {
    "compound": "CN1CCN(c2ccc(NC(=O)Nc3ccc(-c4nc(N5CC6CCC(C5)O6)c5cnn(CC(F)(F)F)c5n4)cc3)cn2)CC1",
    "value-type": "IC50",
    "measurement": 191
  },
  {
    "compound": "CCn1ncc2c(N3CC4CCC(C3)O4)nc(-c3ccc(NC(=O)Nc4ccc(N)nc4)cc3)nc21",
    "value-type": "IC50",
    "measurement": 164
  },
  {
    "compound": "CCOC(=O)N1CCC(n2ncc3c(N4CC5CCC(C4)O5)nc(-c4ccc(NC(=O)Nc5cccnc5)cc4)nc32)CC1",
    "value-type": "IC50",
    "measurement": 314
  },
  {
    "compound": "CCNC(=O)Nc1ccc(-c2nc(N3CC4CCC(C3)O4)c3cnn(C4CCN(C(=O)OC(C)C)CC4)c3n2)cc1",
    "value-type": "IC50",
    "measurement": 2460
  },
  {
    "compound": "CN(C)CCn1ncc2c(N3CC4CCC(C3)O4)nc(-c3ccc(NC(=O)Nc4cccnc4)cc3)nc21",
    "value-type": "IC50",
    "measurement": 235
  },
  {
    "compound": "CCn1ncc2c(N3CC4CCC(C3)O4)nc(-c3ccc(NC(=O)Nc4ccc(N5CCN(C)CC5)nc4)cc3)nc21",
    "value-type": "IC50",
    "measurement": 196
  }
]

Need IC50 for each of these compounds.
1. CCn1ncc2c(N3CC4CCC(C3)O4)nc(-c3ccc(NC(=O)Nc4ccc(N(C)C)nc4)cc3)nc21
2. CCn1ncc2c(N3CC4CCC(C3)O4)nc(-c3ccc(NC(=O)Nc4ccc(CO)cc4)cc3)nc21
3. O=C(Nc1ccc(-c2nc(N3CC4CCC(C3)O4)c3cnn(CC(F)(F)F)c3n2)cc1)OCCO
4. O=C(Nc1ccncc1)Nc1ccc(-c2nc(N3CC4CCC(C3)O4)c3cnn(CCO)c3n2)cc1

1. 419
2. 40
3. 1050
4. 92
